Assay: Oral gavage pharmacokinetics in rats, plasma oxymorphone by LC-MS/MS
Conditions: male, Sprague Dawley, rat, plasma, po, 1.77 mg/kg, Tmax of plasma oxymorphone, Mean, 1.77 mg/kg Oxymorphone HCl oral
Counter-ions that a name gives are not always drawn.
readout_label: Tmax
I'd appreciate it if you included the unit after the number.

Prompt: Quick one: Tmax for CN1CC[C@]23c4c5ccc(O)c4O[C@H]2C(=O)CC[C@@]3(O)[C@H]1C5 [Oxymorphone HCl, oxymorphone hydrochloride] ?
Response: 1.42 h

###

Test: Oral gavage pharmacokinetics in rats, plasma oxymorphone by LC-MS/MS
Settings: male, Sprague Dawley, rat, plasma, oral, 3.54 mg/kg, Plasma oxymorphone, individual rats, 3.54 mg/kg Oxymorphone HCl oral, 6 h
Counter-ions that a name gives are not always drawn.
readout_label: concentration at 6 h (ng/mL)
Report as a plain number; the unit ng/mL is understood.

Prompt: Quick one: concentration at 6 h for CN1CC[C@]23c4c5ccc(O)c4O[C@H]2C(=O)CC[C@@]3(O)[C@H]1C5 [Oxymorphone HCl, oxymorphone hydrochloride] ?
Response: 0.453
